FYI, the data here is from PubChem BioAssay AID686979.

# Protocol: qHTS for Inhibitors of human tyrosyl-DNA phosphodiesterase 1 (TDP1): qHTS in cells in presence of CPT; note: nearly all actives have a fitted effect of over 55% in size; note: potency is the fitted concentration of half-maximal effect
# Test conditions: chicken DT40 Tdp1-/-;hTDP1 cells + 20 nM CPT, ATP luminescence, 48 h; series mostly up to 46.2 µM
In all, about 420,000 compounds went through this assay and about 50,000 (12%) were called active. Inconclusive results (about 26%) are left out. The sample holds actives, similar compounds and a random draw of the others, so the mix is not that of the screen.
Property name: Potency

Completed entries (count: 8):
Cc1c(Cl)cccc1NC(=O)C1CCCN(c2ncnc3onc(C)c23)C1 (stereo not drawn): 8.2 µM (active)
CC(C)Nc1nnc(SCC(=O)c2c[nH]c3ccccc23)s1: inactive
COc1cc(OC)cc(-c2c(-c3cccs3)c3cc(-c4ccc(OC)nc4)ccc3n2C)c1: 20.6 µM (active)
Cc1ccccc1C1=N/C(=C/c2cccnc2)C(=O)O1: inactive
C=CC(C1=CC(=O)C=CC1=O)c1ccc(O)cc1 (stereo not drawn): 1.64 µM (active)
O=Cc1cn(Cc2ccccc2)nc1-c1cccnc1: inactive
CCCC(=O)Nc1nc2ccc(NC(=O)c3cccnc3)cc2s1: 9.2 µM (active)
Cn1c(=O)c(-c2ccccc2)nc2cnc(N3CCNCC3)nc21: inactive

GET /values?readout=Potency&item= O=C(C1CCCO1)N1CCN(S(=O)(=O)c2ccc(Br)cc2)CC1 (stereo not drawn)
inactive

Try CCCCN=C1C([N+](=O)[O-])=CC=C2C1=NC1(CCCCC1)N2O next.
inactive

What about COc1ccc(NC(=S)NCCNC(C)=O)cc1 ?
inactive

Lookup CCCC(=O)Nc1ccc2c(c1)nc1n2CCSC1
inactive

Here is the next compound: CC(C)Cc1nnc(N)s1
inactive

What about this compound? CCOC(=O)c1cc(NC(=O)c2cccnc2)cc(C(=O)OCC)c1
inactive

// same read-out, input: CCc1noc(C)c1C(=O)Nc1nc2ccc(OC)cc2s1
inactive

Another compound: COCCn1c(=O)c(CCc2ccccc2)nc2cnc(N3CCNCC3)nc21
inactive

Do the same for Cc1oc(-c2ccccc2F)nc1CN1CCC(C(=O)NCCc2ccc(Cl)cc2)CC1 please
13 µM (active)
